B1: TPR t1 (parent)
chain: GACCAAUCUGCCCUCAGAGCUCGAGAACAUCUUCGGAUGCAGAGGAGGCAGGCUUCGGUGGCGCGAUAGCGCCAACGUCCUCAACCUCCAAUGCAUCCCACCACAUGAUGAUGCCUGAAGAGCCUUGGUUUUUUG

- Variants of: B1
- TEST_METHOD_NOTES: polymerase ribozyme fitness, log enrichment relative to wild type (log ratio); higher = more active; in vitro selection for triplet polymerase activity
Reported polymerase ribozyme fitness (log ratio) values for a set of variants
READOUT: polymerase ribozyme fitness (log ratio)

RESIDUE_CODES | READOUT | MEASURED_VALUE
GACCAAUCUGCCCUCAGAGCUCGAGAACAUCUUCGGAUGCAGUGGAGGCAGGCUUCGGUGGCACGAUAGCGCCAACGUCCUCAACCUCCAAUGCGUCCCACCACAUGAUGAUGCCUGAAGAUCCUUGGUUUUUUG [A43U G63A A95G G122U] | polymerase ribozyme fitness (log ratio) | -4.37
GACCAAUCUGCCCUCAGAGCUCGAGAACAUCUUCGGAUCCAUAGGACGCAGGCUUCGGUGGCGCGAUAGCGCCAACGUCCUCAACCUCCAAUGCAUCCCACCACAUGAUGAUGCCUGAAGAGCCUUGGUUUUUUG [G39C G42U G47C] | polymerase ribozyme fitness (log ratio) | -3.36
GACCAAUCUGCCCUCAGAGCUCGAGAACAUCUUCGGAUGCAGAGGAGGCAGGCUUCGGUGGCGCGAUAGCGUUAACGUCCUCAACCUCCAAUGCAUCCCACCACAUGAUGAUGCCUGAAGAGCCUUGGUUUUUUG [C72U C73U] | polymerase ribozyme fitness (log ratio) | -1.09
GACCAAUCUGCCCUCAGAGCUCGAGAACAUCUUCGGAUGCAGAGGAGGCAGGCUUCGGUGGCGCGAUAGCGCCAACGUCCUCAACCUCCAAUGCAUCCCCCCACAAGAUGAUGCCUGAAGAGCCUUGGUUUCUUG [A100C U106A U132C] | polymerase ribozyme fitness (log ratio) | -0.19
GACCACUCUACCCUAAGAGCUCGAAAACAUCUUCGGAUGCAGUGCAGGCAGGCUUCGGUGGCGCGAUAGCGCCAACGUCCUCAACGUCCAAUGCAUCCCACCACAGGAUGAUUCCUGAAGAGCCUUGGUUUUUUG [A6C G10A C15A G25A A43U G45C C86G U106G G113U] | polymerase ribozyme fitness (log ratio) | -7.45
GACCAAUCUGCCCUCAGAGCUCGAGAACAUCUUCGGAUGCAGAGGAGGCAGGCUUCAGUGGCUCGAUAGCGCCAUCGUCCUCAACCUCCAAUGCAUCCCACCACAUGAUGAUGCCUGAAGAGCCUUGGUUUUAUG [G57A G63U A75U U133A] | polymerase ribozyme fitness (log ratio) | -1.97
GACCAAUCUGCCCUCAGAGCUCGAGAACAUCUUCGGAUGCAGAGGAGGCAGGCUUCGGUGGCGCGAUAGCGCCAACGUCCUCAACCUCCAAUGCAUCCCACAACAUGAUGAUGCGUGAAGAGCCUUGGUUUUUUG [C102A C115G] | polymerase ribozyme fitness (log ratio) | -3.72
GAACAAUCUGCCCUCAGAGCUCGAGAACAUCUUCGCAUGCAGAGGAGGCAGGCUUCGGUGGCGCGAUAGGGCCAACGUCCUCAACCUCCAAUGCAUCCCACCACAUGAUGAUGCCUGAAAUGCCUUGGUUUUUUG [C3A G36C C70G G120A A121U] | polymerase ribozyme fitness (log ratio) | -3.08
GACCAAUCUGCCCUCAGAGCUCGAGAACAUCUUCGGAUGCAGAGCAGGCAGGCUUCGGUGGCGCGAUAGCGCCAACGUCCUCAACCUCCAAUGCAUCCCACGACAUGAUGAUGCCUGAAGUGCCUGGUUUUUUUG [G45C C102G A121U U126G G128U] | polymerase ribozyme fitness (log ratio) | -4.67
GACCAAUCUGCCCUCAGAGCUCGAGAACAUCUUCGGAUGCAGAGGAGGCAGGCUUCGGUGGCGCGAUAGCGCCAACGCCCUCAACCUCCAAUGGGUCCCACCACAUGAUGAUGCCUGUAGAGCCUUGGUUUUUUG [U78C C94G A95G A118U] | polymerase ribozyme fitness (log ratio) | -0.801
GACCAUUCUGCCCUCAGAGCUCGAGAACUUCUUCGGAUGCAGAGGAGGCAGGCUUCGGUGACGCGAUAGCGCCAACGUCCUCAACCUCCAAUGCAUCCCACCACAUGAUGAUGCGUUAAGAGCCUUGGUUUUUUG [A6U A29U G61A C115G G117U] | polymerase ribozyme fitness (log ratio) | -4.58
